- System: OVCAR-5 ovarian
- TEST: NCI-60 one-dose screen, 48 h
- STATED_CONDITIONS: 10 µM
- Procedure: Growth inhibition of the OVCAR-5 human tumor cell line is measured as a screen for anti-cancer activity. Cells are grown in 96 well plates and exposed to the test compound for 48 hours. Compounds are tested at a single concentration, which is 10^-5 M for most compounds. The reported endpoint is percent growth (GI% or GIPRCNT), where numbers from 0 - 100% represent growth inhibition, and numbers from -100% - 0 represent cell death. For example, a value of 40 represents 60% growth inhibition. […]
Compounds without any hit were thinned out: in the full panel of roughly 83,000, 20% have a hit. Calls of active or inactive are those of the source. How the source made its calls: active means growth percent below 10; inactive means the rest.
Outcome codes: active, inactive

>  <COMPOUND>
NC1=NC(c2ccccc2Cl)N=C(Nc2nn[nH]n2)N1 (stereo not given)

>  <STUDY_SYSTEM>
OVCAR-5 ovarian

>  <ASSIGNED_LABEL>
inactive

$$$$
>  <COMPOUND>
N#Cc1c(NC(=O)c2cccc(C(F)(F)F)c2)sc2c1CCC(O)=C2

>  <STUDY_SYSTEM>
OVCAR-5 ovarian

>  <ASSIGNED_LABEL>
inactive

$$$$
>  <COMPOUND>
O=C(Nc1ccc(Cl)c([N+](=O)[O-])c1)Nc1ccc(Cl)c([N+](=O)[O-])c1

>  <STUDY_SYSTEM>
OVCAR-5 ovarian

>  <ASSIGNED_LABEL>
inactive

$$$$
>  <COMPOUND>
O=C1NC(=NC23CC4CC(CC(C4)C2)C3)N/C1=C\c1ccc2ncsc2c1

>  <STUDY_SYSTEM>
OVCAR-5 ovarian

>  <ASSIGNED_LABEL>
active

$$$$
>  <COMPOUND>
O=C(Nc1cccc(-c2cn(-c3ccc4oc(=O)ccc4c3)nn2)c1)Nc1cc(C(F)(F)F)cc(C(F)(F)F)c1

>  <STUDY_SYSTEM>
OVCAR-5 ovarian

>  <ASSIGNED_LABEL>
inactive

$$$$
>  <COMPOUND>
COc1ccc2[nH]c(O)c(N=NC(=O)COc3ccc(NC(=O)Nc4ccc(Cl)cc4)cc3)c2c1

>  <STUDY_SYSTEM>
OVCAR-5 ovarian

>  <ASSIGNED_LABEL>
inactive

$$$$
>  <COMPOUND>
CO[C@@H]1CSS[C@H]1Cn1nc(-c2ccc(Oc3ccccc3)cc2)c2c(N)ncnc21

>  <STUDY_SYSTEM>
OVCAR-5 ovarian

>  <ASSIGNED_LABEL>
inactive

$$$$
>  <COMPOUND>
O=C(NO)c1ccc(CNC(=O)[C@H]2Cc3c([nH]c4ccccc34)[C@H](c3ccc(Cl)cc3)N2)cc1

>  <STUDY_SYSTEM>
OVCAR-5 ovarian

>  <ASSIGNED_LABEL>
active

$$$$
>  <COMPOUND>
CC1(C)CC[C@]2(C(=O)N3CCOCC3)CC[C@]3(C)C(=CC[C@@H]4[C@@]5(C)CC[C@H](NCO)C(C)(C)[C@@H]5CC[C@]43C)[C@H]2C1

>  <STUDY_SYSTEM>
OVCAR-5 ovarian

>  <ASSIGNED_LABEL>
active

$$$$
>  <COMPOUND>
CCN1CCN(c2ccc(NC(=O)Nc3ccc(-c4cc(C(=O)NC(C)C)c5ncccc5n4)cc3)cc2C(F)(F)F)CC1

>  <STUDY_SYSTEM>
OVCAR-5 ovarian

>  <ASSIGNED_LABEL>
active

$$$$
>  <COMPOUND>
CC1(C)CC[C@]2(C(=O)Nc3ccccc3)CC[C@]3(C)C(=CC[C@@H]4[C@@]5(C)CC[C@H](N)C(C)(C)[C@@H]5CC[C@]43C)[C@H]2C1

>  <STUDY_SYSTEM>
OVCAR-5 ovarian

>  <ASSIGNED_LABEL>
inactive

$$$$
>  <COMPOUND>
CC(=O)Nc1ccc(-c2cn(-c3cccc(C(=O)Nc4cccc(OC(F)(F)F)c4)c3)nn2)cn1

>  <STUDY_SYSTEM>
OVCAR-5 ovarian

>  <ASSIGNED_LABEL>
inactive

$$$$
>  <COMPOUND>
COC(=O)c1c(C(=O)OC)c2n(c1C)[C@@H]([C@@H](C)[C@H]1CC[C@H]3[C@@H]4CCC5=CC(=O)CC[C@]5(C)[C@H]4CC[C@]13C)SC2

>  <STUDY_SYSTEM>
OVCAR-5 ovarian

>  <ASSIGNED_LABEL>
inactive

$$$$
>  <COMPOUND>
COc1cccc(-c2ccnc(/N=C(\N)Nc3ccc(S(=O)(=O)Nc4nc(C)cc(C)n4)cc3)n2)c1

>  <STUDY_SYSTEM>
OVCAR-5 ovarian

>  <ASSIGNED_LABEL>
inactive

$$$$
>  <COMPOUND>
COc1cc2c(cc1OC)/C(=C\c1sc(Nc3ccc(O)cc3)nc1O)C(C(=O)O)=N2

>  <STUDY_SYSTEM>
OVCAR-5 ovarian

>  <ASSIGNED_LABEL>
inactive

$$$$
>  <COMPOUND>
O=C(c1ccc(Cl)cc1)C1[C@H](c2ccccc2Br)[C@@H](c2ccccc2)NC12C(=O)Nc1ccc(Br)cc12 (stereo not given in full)

>  <STUDY_SYSTEM>
OVCAR-5 ovarian

>  <ASSIGNED_LABEL>
inactive

$$$$
>  <COMPOUND>
N#Cc1c(-c2ccc(F)cc2)nc(SCc2ccc(F)cc2)nc1N1CCOCC1

>  <STUDY_SYSTEM>
OVCAR-5 ovarian

>  <ASSIGNED_LABEL>
inactive

$$$$
>  <COMPOUND>
c1ccc(C(=C(c2ccc(OCCN3CCCCC3)cc2)c2ccc(OCCN3CCCCC3)cc2)C2CCCC2)cc1

>  <STUDY_SYSTEM>
OVCAR-5 ovarian

>  <ASSIGNED_LABEL>
active

$$$$
>  <COMPOUND>
O=C(Nc1nc2ccc([N+](=O)[O-])cc2s1)Nc1ccccc1I

>  <STUDY_SYSTEM>
OVCAR-5 ovarian

>  <ASSIGNED_LABEL>
active

$$$$
>  <COMPOUND>
C/C(=N\N=C\c1ccc(Cl)c([N+](=O)[O-])c1)c1ccc2c(c1)Nc1ccccc1S2

>  <STUDY_SYSTEM>
OVCAR-5 ovarian

>  <ASSIGNED_LABEL>
inactive

$$$$
>  <COMPOUND>
O=C1c2ccccc2C(=O)c2c1c(C(=O)c1ccc(Cl)cc1)n1c2ccc2c3ccccc3ccc21

>  <STUDY_SYSTEM>
OVCAR-5 ovarian

>  <ASSIGNED_LABEL>
inactive

$$$$
>  <COMPOUND>
Cc1ccc(C(C)C)cc1NC(=O)c1ccccc1N(C)C

>  <STUDY_SYSTEM>
OVCAR-5 ovarian

>  <ASSIGNED_LABEL>
inactive

$$$$
>  <COMPOUND>
COc1cccc(-c2nn(-c3ccccc3)cc2-c2ccnc(NCCCNC(=O)Nc3ccc(F)cc3)c2)c1

>  <STUDY_SYSTEM>
OVCAR-5 ovarian

>  <ASSIGNED_LABEL>
inactive

$$$$
>  <COMPOUND>
Cc1ccc2nc(COc3ccc(C(=O)NNC(=S)NC(=O)c4ccccc4)cc3)[nH]c2c1

>  <STUDY_SYSTEM>
OVCAR-5 ovarian

>  <ASSIGNED_LABEL>
inactive

$$$$
>  <COMPOUND>
COc1cccc(COc2ccc(/C=C3\Oc4cc(O)ccc4C3=O)cc2)c1

>  <STUDY_SYSTEM>
OVCAR-5 ovarian

>  <ASSIGNED_LABEL>
inactive

$$$$
